- System: ketose 3-epimerase
- Assay type: biochemical, Rhizobium leguminosarum ATCC14480
- cond: 1 mM metal salt, substrate solution without 1 mM MnCl2; None = 100
Output Satisfied for records whose Relative activity is lower than 90%, Not satisfied for records at or above 90%.

1. [Cl-].[Cl-].[Zn+2]: Satisfied
2. [Cl][Cu][Cl]: Satisfied
3. [Cl][Mn][Cl]: Not satisfied
4. [Cl-].[Cl-].[Sr+2]: Not satisfied
5. [Cl][Al]([Cl])[Cl]: Satisfied
6. [Cl][Sn][Cl]: Not satisfied
7. [Cl][Ni][Cl]: Satisfied

---

- System: ketose 3-epimerase
- assay-explanation: Substrate specificity of ketose 3-epimerase (epimer content by HPLC)
- Type: biochemical, Rhizobium leguminosarum ATCC14480
- cond: enzyme 20 units/g-substrate; 1% (w/v) substrate, pH 8.0, 1 mM MnCl2, 45° C., 17 hours
Reported Epimer content in the reaction products maps to class as: bottom (below 6%), middle (6% to below 30%), top (30% or more)

1. O=C(CO)[C@H](O)[C@H](O)[C@@H](O)CO: middle
2. O=C(CO)[C@H](O)[C@@H](O)[C@H](O)CO: bottom
3. O=C(CO)[C@@H](O)[C@@H](O)[C@@H](O)CO: middle
4. O=C(CO)[C@@H](O)[C@H](O)[C@H](O)CO: middle
5. O=C(CO)[C@H](O)[C@H](O)[C@H](O)CO: top
6. O=C(CO)[C@@H](O)[C@H](O)[C@@H](O)CO: middle
7. O=C(CO)[C@H](O)[C@@H](O)CO: middle
8. O=C(CO)[C@@H](O)[C@@H](O)[C@H](O)CO: bottom
9. O=C(CO)[C@@H](O)[C@@H](O)CO: top
10. O=C(CO)[C@@H](O)[C@H](O)CO: middle
11. O=C(CO)[C@H](O)[C@H](O)CO: top
12. O=C(CO)[C@H](O)[C@@H](O)[C@@H](O)CO: bottom

---

Quick reference: Epimer content in the reaction products of the listed items.
- Tested on: ketose 3-epimerase
- assay-explanation: Substrate specificity of ketose 3-epimerase (epimer content by HPLC)
- Format: biochemical, Rhizobium leguminosarum ATCC14480
- cond: enzyme 2 units/g-substrate; 1% (w/v) substrate, pH 8.0, 1 mM MnCl2, 45° C., 17 hours
experimental-endpoint: Epimer content in the reaction products (%)

1) O=C(CO)[C@@H](O)[C@H](O)[C@H](O)CO [D-Fructose, D-fructose]: 17.7
2) O=C(CO)[C@@H](O)[C@H](O)CO [D-Xylulose, D-xylulose]: 2.3
3) O=C(CO)[C@@H](O)[C@H](O)[C@@H](O)CO [L-Sorbose, L-sorbose]: 0

---

- Test system: ketose 3-epimerase
- assay-explanation: Substrate specificity of ketose 3-epimerase (epimer content by HPLC)
- Type: biochemical, Rhizobium leguminosarum ATCC14480
experimental-endpoint: Action of the ketose 3-epimerase on the substrate (in words)

1. O=C(CO)[C@@H](O)[C@H](O)CO [D-Xylulose, D-xylulose]: efficiently catalyzed
2. O=C(CO)[C@H](O)[C@H](O)CO [D-Ribulose, D-ribulose]: efficiently catalyzed
3. O=C(CO)[C@H](O)[C@@H](O)CO [L-Xylulose, L-xylulose]: efficiently catalyzed
